- assayed-system: HA of ca A/teal/Hong Kong/W312/97 (H6N1) virus (influenza A virus)
- assay-details: cell-based or functional assay
measured-property: Neutralization IC50, H6-HK97

Recall and state the measured Neutralization IC50, H6-HK97 for Antibody 14 (antibody, V domains shown) VH: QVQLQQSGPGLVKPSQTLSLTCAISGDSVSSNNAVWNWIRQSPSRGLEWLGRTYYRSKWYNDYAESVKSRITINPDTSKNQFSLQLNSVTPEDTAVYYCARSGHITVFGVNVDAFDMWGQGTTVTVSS VL: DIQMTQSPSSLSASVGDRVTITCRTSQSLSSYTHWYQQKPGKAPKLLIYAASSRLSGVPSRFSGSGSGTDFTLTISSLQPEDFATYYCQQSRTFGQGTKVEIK .
0.26 mg/L
